Measured binding signal values are reported for all entries that follow.
targetOfAssay: AGO2 WT (phosphosite mutant background) (Homo sapiens, UniProt Q9UKV8 1-859, S387D;S824A;S828D;S831D;S834A)
Sequence (Q9UKV8 whole entry S387D/S824A/S828D/S831D/S834A): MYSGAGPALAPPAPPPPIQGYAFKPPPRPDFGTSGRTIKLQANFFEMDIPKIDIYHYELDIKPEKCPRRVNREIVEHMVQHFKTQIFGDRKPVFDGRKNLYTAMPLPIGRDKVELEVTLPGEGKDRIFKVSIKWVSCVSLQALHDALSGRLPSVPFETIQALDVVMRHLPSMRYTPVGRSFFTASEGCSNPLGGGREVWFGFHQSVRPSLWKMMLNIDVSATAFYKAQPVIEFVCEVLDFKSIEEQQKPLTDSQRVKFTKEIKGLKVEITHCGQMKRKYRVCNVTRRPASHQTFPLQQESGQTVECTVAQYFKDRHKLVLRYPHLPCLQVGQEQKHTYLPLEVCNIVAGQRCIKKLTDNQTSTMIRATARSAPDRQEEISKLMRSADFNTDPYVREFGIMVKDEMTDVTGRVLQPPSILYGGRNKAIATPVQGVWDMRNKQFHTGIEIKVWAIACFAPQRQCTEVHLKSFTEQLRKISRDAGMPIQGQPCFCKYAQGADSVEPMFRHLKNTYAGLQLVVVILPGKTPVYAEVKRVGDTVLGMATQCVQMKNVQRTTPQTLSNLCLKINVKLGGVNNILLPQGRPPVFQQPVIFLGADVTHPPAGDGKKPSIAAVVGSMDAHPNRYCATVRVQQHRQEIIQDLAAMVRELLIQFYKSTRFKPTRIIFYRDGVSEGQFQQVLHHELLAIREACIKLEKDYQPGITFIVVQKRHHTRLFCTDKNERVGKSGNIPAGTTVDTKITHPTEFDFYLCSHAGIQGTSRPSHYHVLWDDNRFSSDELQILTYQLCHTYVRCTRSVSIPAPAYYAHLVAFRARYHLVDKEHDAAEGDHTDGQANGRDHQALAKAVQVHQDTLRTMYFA
assayNotes: RNA Bind-n-Seq (nitrocellulose filter binding and sequencing); miR-122 guide loaded in AGO2; 60 min incubation; 30 mM Tris pH 8.0, 100 mM potassium acetate, 2 mM magnesium acetate, 0.5 mM TCEP, 0.005% NP-40, 0.01 mg/ml yeast tRNA; 3 nM AGO2-miR-122, 100 nM RNA library; 60; high values mean tight binding
testSettings: protein: recombinant; tags: His6 (N-terminal, pFastBac HTA)

For orientation, consider the following solved cases.
GTACTCCG (ssRNA, constant regions annealed to DNA blockers; guide miR-122 5' phosphate) RNA 1: GAGUUCUACAGUCCGACGAUCCCAACGUACUCCGCACCUGGAAUUCUCGGGUGCCAA RNA 2: UGGAGUGUGACAAUGGUGUUUG DNA 1: GATCGTCGGACTGTAGAACTC DNA 2: TTGGCACCCGAGAATTCCA : 0.327 fold enrichment over input
ATGCTCCG (ssRNA, constant regions annealed to DNA blockers; guide miR-122 5' phosphate) RNA 1: GAGUUCUACAGUCCGACGAUCCCAACAUGCUCCGCACCUGGAAUUCUCGGGUGCCAA RNA 2: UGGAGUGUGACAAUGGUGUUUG DNA 1: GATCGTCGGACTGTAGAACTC DNA 2: TTGGCACCCGAGAATTCCA : 0.186 fold enrichment over input

Prompt: Request the reported binding signal associated with ACGTTCCA (ssRNA, constant regions annealed to DNA blockers; guide miR-122 5' phosphate) RNA 1: GAGUUCUACAGUCCGACGAUCCCAACACGUUCCACACCUGGAAUUCUCGGGUGCCAA RNA 2: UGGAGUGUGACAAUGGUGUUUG DNA 1: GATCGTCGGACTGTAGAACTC DNA 2: TTGGCACCCGAGAATTCCA
Response: 0.137 fold enrichment over input

Prompt: Request the reported binding signal associated with GCACTTCA (ssRNA, constant regions annealed to DNA blockers; guide miR-122 5' phosphate) RNA 1: GAGUUCUACAGUCCGACGAUCCCAACGCACUUCACACCUGGAAUUCUCGGGUGCCAA RNA 2: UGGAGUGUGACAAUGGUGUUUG DNA 1: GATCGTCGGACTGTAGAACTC DNA 2: TTGGCACCCGAGAATTCCA
Response: 0.149 fold enrichment over input

Prompt: Request the reported binding signal associated with ATGTCCCA (ssRNA, constant regions annealed to DNA blockers; guide miR-122 5' phosphate) RNA 1: GAGUUCUACAGUCCGACGAUCCCAACAUGUCCCACACCUGGAAUUCUCGGGUGCCAA RNA 2: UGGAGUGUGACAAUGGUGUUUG DNA 1: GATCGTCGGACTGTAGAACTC DNA 2: TTGGCACCCGAGAATTCCA
Response: 0.155 fold enrichment over input

Prompt: Request the reported binding signal associated with ATGCCTCA (ssRNA, constant regions annealed to DNA blockers; guide miR-122 5' phosphate) RNA 1: GAGUUCUACAGUCCGACGAUCCCAACAUGCCUCACACCUGGAAUUCUCGGGUGCCAA RNA 2: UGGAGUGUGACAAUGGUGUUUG DNA 1: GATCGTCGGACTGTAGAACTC DNA 2: TTGGCACCCGAGAATTCCA
Response: 0.127 fold enrichment over input
